# Protocol Details: Plasma pharmacokinetics after 2-hour IV infusion (LC-MS/MS)
# Run Conditions: read-out: AUC(tf) Mean; Day 1, 0.66 mg/m^2, N 1
Measure: AUC(0-t) (ng·h/mL)
Dear colleague, please return just the value in ng·h/mL, with no unit written.

Assign AUC(0-t) to the following record: CCc1cnn2c(NCc3ccc[n+]([O-])c3)cc(N3CCCC[C@H]3CCO)nc12
35.3
